Data origin: ChEMBL document CHEMBL1139020

List of Activity values.
# assay_system: Galectin-1 (Homo sapiens) (UniProt P09382)
# Sequence (P09382 whole entry): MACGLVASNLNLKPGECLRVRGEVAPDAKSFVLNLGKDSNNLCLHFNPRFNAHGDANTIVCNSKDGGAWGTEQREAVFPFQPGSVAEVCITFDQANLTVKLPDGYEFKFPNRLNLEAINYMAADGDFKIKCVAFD
# procedure_summary: Inhibition of Galectin1

Record excerpt, results attached:
Query block: What does the record list as Activity for CC(=O)OC[C@H]1O[C@@H](Sc2ccc(Br)cc2)[C@H](OC(C)=O)[C@@H](OC(C)=O)[C@@H]1O[C@@H]1O[C@H](CO)[C@H](O)[C@H](O)[C@H]1O ?
Result block: 0.313 mM

Query block: What does the record list as Activity for COc1ccc(S(=O)(=O)[C@@H]2O[C@H](CO)[C@H](O)[C@H](O)[C@H]2O)cc1 ?
Result block: > 5 mM

Next:
Query block: What does the record list as Activity for CC(=O)OC[C@H]1O[C@@H](Oc2ccccc2[N+](=O)[O-])[C@H](OC(C)=O)[C@@H](OC(C)=O)[C@@H]1O[C@@H]1O[C@H](CO)[C@H](O)[C@H](O)[C@H]1O ?
Result block: 0.08 mM
